Test system: SF-539;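 further: Read-out is a cell viability assay, with IC50 reflecting inhibition of cell growth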
assay_method_text: cells
Type: functional, cell-based, Homo sapiens
measurement_conditions: Homo sapiens, SF-539
Description: SANGER: Inhibition of human SF539 cell growth in a cell viability assay.
pIC50: −log10 of the molar value.
measurement_name: pIC50

molecule	pIC50
COc1cccc2c1C(=O)c1c(O)c3c(c(O)c1C2=O)C[C@@](O)(C(=O)CO)C[C@@H]3O[C@H]1C[C@H](N)[C@H](O)[C@H](C)O1	6.91
COc1cc(N2CCN(C)CC2)ccc1Nc1ncc2c(n1)N(C)c1ccccc1C(=O)N2C	< 5.10

Provide pIC50 for all items below, preserving their order.
1. Nc1ccn([C@@H]2O[C@H](CO)[C@@H](O)C2(F)F)c(=O)n1
2. CCC/C=C/C=C/C(=O)O[C@H]1/C(=C/C(=O)OC)C[C@H]2C[C@H]([C@@H](C)O)OC(=O)C[C@H](O)C[C@@H]3C[C@H](OC(C)=O)C(C)(C)[C@](O)(C[C@@H]4C/C(=C/C(=O)OC)C[C@H](/C=C/C(C)(C)[C@]1(O)O2)O4)O3
3. CC1(C)CNc2cc(NC(=O)c3cccnc3NCc3ccncc3)ccc21

## Output
1: 8.99; 2: < 8.10; 3: < 5.70

Provide pIC50 for all items below, preserving their order.
1. COc1cc(-c2nn([C@H]3CC[C@H](N4CCN(C(C)=O)CC4)CC3)c3ncnc(N)c23)ccc1NC(=O)c1cc2ccccc2n1C
2. COc1cc2ncn(-c3cc(OCc4ccccc4S(C)(=O)=O)c(C#N)s3)c2cc1OC [GSK-319347A]

## Output
1: < 5.29; 2: < 5.30

====

Test system: SHP77;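 further: growth inhibition of human SHP-77 cells measured by a cell viability assay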
assay_method_text: cells
Type: functional, cell-based, Homo sapiens, SHP-77
measurement_conditions: shp-77
Description: SANGER: Inhibition of human SHP-77 cell growth in a cell viability assay.
measurement_name: IC50 (µM)
Answers are plain numbers, in µM.

>>> print(df.to_string())
   sequence_record  test_value
0        CISPLATIN         602

// moving on: another record for IC50
## Input Consider the sequence `BLEOMYCIN` and give its measured IC50.
## Output 142

====

Assignment: determine reported pIC50 for the given compounds.
System: CMK;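 further: growth inhibition of CMK cells, read out as cell viability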
assay_method_text: cells
Assay type: functional, cell-based, Homo sapiens
measurement_conditions: Homo sapiens, CMK
Description: SANGER: Inhibition of human CMK cell growth in a cell viability assay.
Where a name gives a salt, the structure may show the parent alone.
Answers are plain numbers, as −log10 of the molar value.

compound	pIC50
Cc1cc([N+](=O)[O-])ccc1NS(=O)(=O)c1cc(Cl)ccc1Cl	5.32
COc1cc(N2CCN(C)CC2)ccc1Nc1ncc2c(n1)N(C)c1ccccc1C(=O)N2C	5.41
COC1=CC(c2cc3ccccc3[nH]2)=N/C1=C\c1[nH]c(C)cc1C [OBATOCLAX MESYLATE]	7.52
Oc1ccc2ccccc2c1SSc1c(O)ccc2ccccc12	5.50

Provide pIC50 for all items below, preserving their order.
1. COc1cccc2c1C(=O)c1c(O)c3c(c(O)c1C2=O)C[C@@](O)(C(=O)CO)C[C@@H]3O[C@H]1C[C@H](N)[C@H](O)[C@H](C)O1
2. CCN(CC)CCNC(=O)c1c(C)[nH]c(/C=C2\C(=O)Nc3ccc(F)cc32)c1C

## Output
[7.11, 5.71]

====

Assignment: determine reported pIC50 for the given compounds.
Test system: SCC-4
assay_method_text: cells
Type: functional, cell-based, Homo sapiens
measurement_conditions: Homo sapiens, SCC-4
Description: SANGER: Inhibition of human SCC-4 cell growth in a cell viability assay.
pIC50: −log10 of the molar value.

compound	target_under_test	measurement_name	test_value
COc1cccc2c1C(=O)c1c(O)c3c(c(O)c1C2=O)C[C@@](O)(C(=O)CO)C[C@@H]3O[C@H]1C[C@H](N)[C@H](O)[C@H](C)O1 [DOXORUBICIN]	SCC-4	pIC50	6.74
Cc1cn(-c2cc(NC(=O)c3ccc(C)c(Nc4nccc(-c5cccnc5)n4)c3)cc(C(F)(F)F)c2)cn1 [NILOTINIB]	SCC-4	pIC50	< 5.70
Cn1cnc2c(F)c(Nc3ccc(Br)cc3Cl)c(C(=O)NOCCO)cc21 [SELUMETINIB]	SCC-4	pIC50	< 5.40
Nc1cccc2c1CN(C1CCC(=O)NC1=O)C2=O (configuration not stated) [LENALIDOMIDE]	SCC-4	pIC50	< 5.30
Nc1ccn([C@@H]2O[C@H](CO)[C@@H](O)C2(F)F)c(=O)n1 [GEMCITABINE]	SCC-4	pIC50	6.67

Provide pIC50 for all items below, preserving their order.
1. CO[C@H]1C[C@@H]2CC[C@@H](C)[C@@](O)(O2)C(=O)C(=O)N2CCCC[C@H]2C(=O)O[C@H]([C@H](C)C[C@@H]2CC[C@@H](OC(=O)C(C)(CO)CO)[C@H](OC)C2)CC(=O)[C@H](C)/C=C(\C)[C@@H](O)[C@@H](OC)C(=O)[C@H](C)C[C@H](C)/C=C/C=C/C=C/1C [TEMSIROLIMUS]
2. CS(=O)(=O)c1ccc(C(=O)Nc2ccc(Cl)c(-c3ccccn3)c2)c(Cl)c1 [VISMODEGIB]

## Output
1. < 6.70
2. < 5.00
